Overview of reported growth across a group of compounds:
- System: PC-3 prostate
- protocol: NCI-60 one-dose screen, 48 h (100 = growth as untreated, 0 = no growth, -100 = all killed)
- experimental-setup: 10 µM unless noted
The panel holds about 83,000 compounds, 20% with a hit somewhere; the sample as a whole holds those more often.
assay-endpoint: growth (%)

COCCOCCOCc1n(Cc2ccc3ccccc3c2)c2ccccc2[n+]1Cc1ccc2ccccc2c1	5.49
C=CCn1c(CN2CCN(c3cc4c(cc3F)c(=O)c(C(=O)O)cn4C3CC3)CC2)n[nH]c1=S	101
C=C(C)[C@@H]1CC[C@]2(C(=O)O)CC[C@]3(C)[C@H](CC[C@@H]4[C@@]5(C)C[C@@H](CC#Cc6ccc(Cl)cc6)C(=O)C(C)(C)[C@@H]5CC[C@]43C)[C@@H]12	25.9
COC(=O)c1cc2c3c(cc(O)c2[nH]1)N(C(=O)C1Cc2cc(OC)c(OC)c(OC)c2N1)CC3CCl (configuration not stated)	-17.1
O=C1Nc2ccc(Br)cc2/C1=N\N=C/c1cn(Cc2ccccc2)c2ccccc12	75.1
CC1CCCN(CCCCCOc2ccc3oc4ccc(Cl)cc4c(=O)c3c2)C1 (configuration not stated)	79.8
CC(C)(C)c1ccc2oc(=O)n(SC(Cl)(Cl)Cl)c2c1	99.3
COc1ccccc1N1CCN(CCCOc2ccc(C(=O)/C=C3/C(=O)Nc4ccccc43)cc2)CC1	40.9
Cc1c(Br)cccc1NC(=O)c1sc2nc3c(cc2c1N)CN(Cc1ccccc1)CC3	31.8
Cc1c(Cl)cccc1NC(=O)c1sc2nc3c(cc2c1N)CCCCC3	37.9
N#CCNc1ccc(C(=O)O)cc1	94.3
COc1ccc2nc(-c3ccc(Cl)cc3)cc(C(=O)N3N=C(c4ccc(N)cc4)CC3c3ccccc3)c2c1 (configuration not stated)	35.9

---

- System: A498 renal
- protocol: NCI-60 one-dose screen, 48 h
- experimental-setup: 10 µM unless noted
This is part of a sample that, as a whole, favours compounds with a hit. Of some 83,000 tested, about 20% had one in any assay. Active and inactive are the calls of the source. Rule for the calls: active = growth percent below 10; inactive = the rest.
Outcomes: yes (1) for active, no (0) for inactive

O=C(Nc1ccc2ncnc(Nc3ccc(F)c(Cl)c3)c2c1)c1ccccc1	no (0)
C#C[C@@]1(O)[C@@H](CO)O[C@@H](n2cnc3c(-c4ccccc4)ncnc32)[C@@H]1O	no (0)
O=C(Nc1ccc(N=Cc2ccccc2O)cc1)NC1C=c2ccccc2=CC1 (stereo not drawn)	no (0)
N#Cc1c(-c2ccc(F)cc2)nc(N/N=C/c2c[nH]c3ccccc23)nc1N1CCOCC1	no (0)
C=C1C(=O)O[C@H]2[C@H]1CC/C(C=Nc1c(N)cc(F)cc1Br)=C\CC[C@@]1(C)O[C@@H]21	no (0)
C=C1C(=O)O[C@H]2[C@H]1CC/C(COC(=O)NCC(=O)Nc1ccc(OC)c(C(N)=O)c1O)=C\CC[C@@]1(C)O[C@@H]21	no (0)
NC(=N\N=C\c1ccccc1O)/C(N)=N/N=C/c1ccccc1O	no (0)
CN1CCN(/C=C2\CC(C(=O)NCc3ccc(Cl)cc3Cl)NC2=O)CC1 (stereo not drawn)	no (0)
CCOC(=O)c1c(-c2ccc(O)cc2)c(C#N)c2c(C#N)c(N)nn2c1N	no (0)
Cc1nc(C)c(C)nc1C	no (0)
CC(=O)Nc1c(C(=O)Nc2ccccc2)sc2nc3c(cc12)C(OC(C)=O)CCC3 (stereo not drawn)	yes (1)
COc1cc(-c2csc(NC(=O)Nc3ccc(C(F)(F)F)cc3)n2)cc(OC)c1OC	yes (1)
CCOCCc1c(O)nc(SC)[nH]c1=O	no (0)

---

- Test system: EKVX NSCLC
- protocol: NCI-60 one-dose screen, 48 h
- experimental-setup: 10 µM unless noted
Compounds without any hit were thinned out: in the full panel of roughly 83,000, 20% have a hit. The source made the active and inactive calls. How the source made its calls: active means growth percent below 10; inactive means the rest.
Outcomes: 1 for active, 0 for inactive

CC(C)CSc1nc(Nc2ccccc2)c(C#N)c(-c2ccc(F)cc2)n1	0
Fc1ccc(N/N=C/c2ccc(-n3cccn3)cc2)cc1	0
CC(=O)ON1CCCC(P(=O)(OCOC(=O)C(C)(C)C)OCOC(=O)C(C)(C)C)C1=O (stereo unspecified)	1
C=C1C(=O)O[C@H]2[C@H]1CC/C(C=Nc1c(N)cc(F)cc1Br)=C\CC[C@@]1(C)O[C@@H]21	0
COc1ccc(C2N(c3cc(OC)c(OC)c(OC)c3)C(=O)C2(F)F)cc1F (stereo unspecified)	0
O=C1C(=O)c2c(nc3ccc(C(F)(F)F)cn23)-c2ccccc21	1
COc1ccc(/C=C(/C(=O)N2CCCC2)c2cc(OC)c(OC)c(OC)c2)cc1	0
CCSc1nc(Cl)c(C#N)c(-c2ccc(F)cc2)n1	0
COc1cc(F)c(-c2nc3c(C)cccc3n2Cc2c(F)cccc2F)c(F)c1	0
COc1ccc(-c2nc(C#N)c(NCC(c3ccco3)N3CCCC3)o2)cc1 (stereo unspecified)	0
CCCCn1c2cc(OCc3cn(-c4ccc(Cl)cc4)nn3)ccc2c2ccnc(C)c21	0
O=C1CC23OC4ON=C(Br)C4C2C(O)c2ccccc2N13 (stereo unspecified)	0
COc1cc(C2CC(c3ccc(Nc4nc(NCCO)nc(NCCO)n4)cc3)=NN2c2cc(Cl)cc(Cl)c2)cc(OC)c1OC (stereo unspecified)	0
O=C1CCC23OC(c4ccccc4N12)C(O)C(O)C3O (stereo unspecified)	0
COC(=O)c1ccc2c(c1)n(Cc1ccc3ccccc3c1)c[n+]2Cc1ccc2ccccc2c1	0
CC(=O)Nc1nc2c(c(N)c1C#N)C(c1cccc(Cl)c1)C1=C(CCCC1=O)N2c1sc2c(c1C#N)CCCC2 (stereo unspecified)	0
Nc1ccc(C(=O)Nc2cccc(C(=O)Nc3ccc4c(O)c(N=Nc5ccc(N=Nc6ccc(S(=O)(=O)O)cc6)cc5)c(S(=O)(=O)O)cc4c3)c2)cc1	0
CCSc1ccc(C2C(Br)C(=O)N2c2cc(OC)c(OC)c(OC)c2)cc1 (stereo unspecified)	0
COc1cc(C(=O)N2CCN(c3ccccc3OC)CC2)c(NC(=O)c2cnccn2)cc1OCc1ccccc1	0
NS(=O)(=O)c1ccc(N2Cc3cc(Cl)ccc3OC3=C2C(=O)N(CC2CCCCC2)C3=O)cc1	1
Nc1c(C(=O)c2ccccc2)sc2nc(-c3cc4ccccc4o3)cc(-c3ccc(Cl)cc3)c12	0

---

Overview of reported growth across a group of molecules:
- Tested on: LOX IMVI melanoma
- protocol: NCI-60 one-dose screen, 48 h (100 = growth as untreated, 0 = no growth, -100 = all killed)
- experimental-setup: 10 µM unless noted
Compounds without any hit were thinned out: in the full panel of roughly 83,000, 20% have a hit.
assay-endpoint: growth (%)

O=C1Nc2ccc(Cl)cc2/C1=N/c1nc(-c2ccc(Cl)cc2)cs1	-7.47
COc1ccc(/C(=N\O)c2cc(C)c(OC)c(C)c2)cc1O	24.2
N#Cc1c(-c2ccc(F)cc2)nc(N/N=C/c2cccc(O)c2)nc1N1CCOCC1	85.2
CCOC(=O)/C(=C/c1c(-c2ccccc2)[nH]c2ccccc12)C(=O)c1ccc(Cl)cc1	44.3
COc1cc(C2=N/C(=C\c3cc4ccccc4nc3Oc3ccccc3)C(=O)N2C(=N)N)cc(OC)c1OC	66.9
CC1(C)Cc2c(Br)c(Br)c(Br)c(OCC(O)CN3CCOCC3)c2O1 (stereo not drawn)	87.1
CC(C)(C)c1ccc2oc(=O)n(SC(Cl)(Cl)Cl)c2c1	93.4
NCCCn1c2c(c3cc(-c4ccn[nH]4)ccc3c1=O)C(=O)c1ccccc1-2	47.1

---

- System: 786-0 renal
- protocol: NCI-60 one-dose screen, 48 h (100 = growth as untreated, 0 = no growth, -100 = all killed)
- experimental-setup: 10 µM unless noted
The panel holds about 83,000 compounds, 20% with a hit somewhere; the sample as a whole holds those more often.
assay-endpoint: growth (%)

COc1ccc(/C=C/C(=O)C(CC2CCC2)C(=O)/C=C/c2ccc(OC)c(OC)c2)cc1OC	-44.6
CCCCn1c(=O)c(/C=C/C(=O)/C=C/c2cc3ccccc3n(CCCC)c2=O)cc2ccccc21	-63
C=C(C)[C@@H]1CC[C@]2(C(=O)NCCCO)CC[C@]3(C)[C@H](CC[C@@H]4[C@@]5(C)CCCNC(C)(C)[C@@H]5CC[C@]43C)[C@@H]12	85.6
Cc1ccc(CS/C(=C\c2ccc([N+](=O)[O-])cc2)C(=O)c2ccc(F)cc2)cc1	76.9
CC1(C)CC[C@]2(c3nnc(-c4ccncc4)o3)CC[C@]3(C)C(=CC[C@@H]4[C@@]5(C)CCC(=O)C(C)(C)[C@@H]5CC[C@]43C)[C@@H]2C1	85
CNc1cccc2c1C(=O)c1cccc(N)c1C2=O	38
N#Cc1nc(-c2ccccc2)oc1S(=O)(=O)NCC(c1ccc(Cl)cc1)N1CCCCC1 (stereo unspecified)	87.1
N#Cc1c(-c2ccc(F)cc2)c(C#N)c2c(C#N)c(N)nn2c1N	94.2
CCN1CCN(c2ccc(NC(=O)Nc3nc4ccc(-c5ccccc5OC)cc4s3)cc2)CC1	-80.7
COc1ccc(-c2cc(-c3nnc(SCC(=O)Nc4ccc(/C(C)=N\O)cc4)o3)c3ccccc3n2)cc1	95.5
CC(=O)c1ccc(NC(=O)CSc2nnc(-c3cc(-c4ccc(Cl)cc4)nc4ccccc34)o2)cc1	63.5
Nc1cc(N)c(S(=O)(=O)O)cc1N=Nc1cc([N+](=O)[O-])ccc1O	110
CS(=O)(=O)O[C@@H]1C(=O)N(c2cc3c4ccccc4ccc3c3ccccc23)[C@H]1c1ccc(F)cn1	26.2
CCCCc1n(Cc2ccc3ccccc3c2)c2ccccc2[n+]1Cc1ccc2ccccc2c1	-80.1
O=c1[nH]nc(-c2ccccc2)c2sc(NC(=S)Nc3ccc(Cl)cc3)nc12	92.5
COc1ccc2nc(-c3ccc(Cl)cc3)cc(C(=O)N3N=C(c4ccc(N)cc4)CC3c3ccccc3)c2c1 (stereo unspecified)	31.8
